Biological target: T1, mouse IL-17A (mouse, UniProt Q62386 26-158, limits assumed)
T1 construct: Purified recombinant protein in SPR; also called MuIL-17A; murine IL-17A
T1 sequence (looked up): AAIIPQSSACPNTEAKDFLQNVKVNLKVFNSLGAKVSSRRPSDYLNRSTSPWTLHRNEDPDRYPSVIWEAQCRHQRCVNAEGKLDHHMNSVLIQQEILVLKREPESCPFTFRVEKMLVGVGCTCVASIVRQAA
Assay: SPR (Biacore 3000), antibody captured by anti-Fc, antigen in solution;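 also: purified recombinant IL-17 antigens flowed over captured antibodies in HBS-EP buffer, global Langmuir one-to-one fit of association and dissociation phases, KD derived from koff over kon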

BINDER: IL17-h5C5.8 (antibody, V domains shown, IgG; constant regions not specified; also called h5C5.8 (VH.1-Vk.1a)) VH: EVQLVQSGAEVKKPGASVKVSCKASGYTFTDYEFHWVRQAPGQGLEWMGVIHPGNGGTAYNQNFRDRVTITADKSTSTAYMELSSLRSEDTAVYYCARFLTYEGYFDYWGQGTLVTVSS VL: DIQMTQSPSSLSASVGDRVTITCKASQSVSIDVGWFQQKPGKSPKLLIYHASNRYTGVPSRFSGSGSGTDFTFTISSLQPEDFATYFCQQDYSSPYTFGQGTKLEIKR
UNIT_OF_MEASUREMENT: M⁻¹ s⁻¹
kon: 285000
//
BINDER: IL17-h5C5.14 (antibody, V domains shown, IgG; constant regions not specified; also called h5C5.14 (VH.1-Vk.3a)) VH: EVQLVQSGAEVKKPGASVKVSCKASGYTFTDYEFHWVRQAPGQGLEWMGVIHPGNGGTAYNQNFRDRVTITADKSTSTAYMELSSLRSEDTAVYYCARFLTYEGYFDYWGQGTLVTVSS VL: EIVMTQSPATLSVSPGERATLSCKASQSVSIDVGWFQQKPGQSPRLLIYHASNRYTGVPARFSGSGSGTDFTLTISSLQPEDFAVYFCQQDYSSPYTFGQGTKLEIKR
UNIT_OF_MEASUREMENT: M⁻¹ s⁻¹
kon: 266000
//
BINDER: IL17-h5C5.18 (antibody, V domains shown, IgG; constant regions not specified; also called h5C5.18 (VH.1b-Vk.1c)) VH: EVQLVQSGAEVKKPGASVKVSCKASGYTFTDYEFHWVRQAPGQGLEWIGVIHPGNGGTAYNQNFRDRATLTADKSTSTAYMELSSLRSEDTAVYYCTRFLTYEGYFDYWGQGTLVTVSS VL: NIVMTQSPSSLSASVGDRVTITCKASQSVSIDVGWFQQKPGKSPKLLIYHASNRYTGVPSRFSGSGSGTDFTFTISSLQPEDFATYFCQQDYSSPYTFGQGTKLEIKR
UNIT_OF_MEASUREMENT: M⁻¹ s⁻¹
kon: 172000
//
BINDER: IL17-h5C5.21 (antibody, V domains shown, IgG; constant regions not specified; also called h5C5.21 (VH.1b-Vk.3c)) VH: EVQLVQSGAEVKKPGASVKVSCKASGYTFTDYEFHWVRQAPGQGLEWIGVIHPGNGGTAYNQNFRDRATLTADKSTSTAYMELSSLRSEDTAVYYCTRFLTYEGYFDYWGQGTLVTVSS VL: NIVMTQSPATLSVSPGERATLSCKASQSVSIDVGWFQQKPGQSPRLLIYHASNRYTGVPARFSGSGSGTDFTLTISSLQPEDFAVYFCQQDYSSPYTFGQGTKLEIKR
UNIT_OF_MEASUREMENT: M⁻¹ s⁻¹
kon: 171000
//
BINDER: IL17-h10F7.11 (antibody, V domains shown, IgG; constant regions not specified; also called h10F7.11 (VH.1a-Vk.2a)) VH: EVQLVQSGAEVKKPGSSVKVSCKASGYTFTDYEIHWVRQAPGQGLEWIGVNDPESGGTFYNQKFDGRATLTADKSTSTAYMELSSLRSEDTAVYYCTRYYRYESFYGMDYWGQGTTVTVSS VL: EIVLTQSPDFQSVTPKEKVTITCSASSSISYIYWFQQKPDQSPKRWIYATFELASGVPSRFSGSGSGTDYTLTINSLEAEDAATYYCHQRSSYPWTFGQGTKLEIKR
UNIT_OF_MEASUREMENT: M⁻¹ s⁻¹
kon: 236000
